# assay-name: in vitro
# stated-conditions: human
metric-name: recovery at 20 min, 10 μM (%)
Numeric answer only, unit % assumed.

**Query** Look at this compound and give its reported recovery at 20 min, 10 μM. CC(=O)CC(c1ccccc1)c1c(O)c2ccccc2oc1=O (stereo not shown)
**Result** 94.2

====

# assay-name: Ultrafiltration
# Assay type: in vitro ADME, mouse
# stated-conditions: mouse, plasma
Threshold check on fraction unbound at 20 min, 10 μM: at or above 0.4 gives condition met, strictly below gives condition not met.

Take a look at these entries with their results.
[
  {
    "compound": "CC(=O)O[C@H]1C(=O)[C@@]2(C)[C@H]([C@H](OC(=O)c3ccccc3)[C@]3(O)C[C@H](OC(=O)[C@H](O)[C@@H](NC(=O)c4ccccc4)c4ccccc4)C(C)=C1C3(C)C)[C@]1(OC(C)=O)CO[C@@H]1C[C@@H]2O [Paclitaxel]",
    "group-label": "condition not met"
  },
  {
    "compound": "CS(=O)(=O)c1ccc(C(=O)Nc2ccc(Cl)c(-c3ccccn3)c2)c(Cl)c1 [Vismodegib]",
    "group-label": "condition not met"
  },
  {
    "compound": "COc1cc(NS(=O)(=O)c2ccc(N)cc2)nc(OC)n1 [Sulfadimethoxine]",
    "group-label": "condition not met"
  }
]

**Query** Please indicate if the recorded fraction unbound at 20 min, 10 μM for O=C(CCCCCCC(=O)Nc1ccccc1)NO [Vorinostat] meets or exceeds 0.4.
**Result** condition met

**Query** Does CC(=O)Nc1ccc(O)cc1 [Acetaminophen] have a reported fraction unbound at 20 min, 10 μM of at least 0.4?
**Result** condition met

**Query** Evaluate CC[C@H](C)C(=O)O[C@H]1C[C@@H](C)C=C2C=C[C@H](C)[C@H](CC[C@@H]3C[C@@H](O)CC(=O)O3)[C@H]21 [Lovastatin] : fraction unbound at 20 min, 10 μM at minimum 0.4?
**Result** condition not met

**Query** Tell me whether fraction unbound at 20 min, 10 μM is at least 0.4 here: CC(C)(C)NCC(O)c1cc(O)cc(O)c1 (centres unmarked) [Terbutaline]
**Result** condition met

====

Listed here: items and their measured recovery at 20 min, 10 μM.
# assay-name: Ultrafiltration
# Format: in vitro ADME, mouse
# stated-conditions: mouse, mouse plasma
Give the number; % is assumed, so skip it.

Examples with their reported recovery at 20 min, 10 μM follow.
[
  {
    "compound": "CC(=O)CC(c1ccccc1)c1c(O)c2ccccc2oc1=O (stereo not drawn)",
    "metric-name": "recovery at 20 min, 10 μM",
    "readout-number": 99.8
  },
  {
    "compound": "COc1cc(NS(=O)(=O)c2ccc(N)cc2)nc(OC)n1",
    "metric-name": "recovery at 20 min, 10 μM",
    "readout-number": 109
  },
  {
    "compound": "Cc1ccnc(NS(=O)(=O)c2ccc(N)cc2)n1",
    "metric-name": "recovery at 20 min, 10 μM",
    "readout-number": 107
  },
  {
    "compound": "C[C@]12CCC(=O)C=C1CC[C@@H]1[C@@H]2[C@@H](O)C[C@@]2(C)[C@H]1CC[C@]2(O)C(=O)CO [Hydrocortisone]",
    "metric-name": "recovery at 20 min, 10 μM",
    "readout-number": 102
  },
  {
    "compound": "CC(=O)Nc1ccc(O)cc1",
    "metric-name": "recovery at 20 min, 10 μM",
    "readout-number": 97.2
  }
]

**Query** Reported recovery at 20 min, 10 μM for CS(=O)(=O)c1ccc(C(=O)Nc2ccc(Cl)c(-c3ccccn3)c2)c(Cl)c1 : what is it?
**Result** 94.3

**Query** Reported recovery at 20 min, 10 μM for CCCCNC(=O)NS(=O)(=O)c1ccc(C)cc1 [Tolbutamide] : what is it?
**Result** 106

**Query** Entry O=C(CCCCCCC(=O)Nc1ccccc1)NO has what recovery at 20 min, 10 μM?
**Result** 98.7

**Query** State the recorded recovery at 20 min, 10 μM for this entry: Cc1nnc(NS(=O)(=O)c2ccc(N)cc2)s1
**Result** 104
